- Tested on: Escherichia coli TOP10
- Experimental details: shrunken log2 fold change of peptide-encoding DNA abundance (4.5 h post-induction vs induction); higher = less antimicrobial activity (less host growth inhibition)
- Condition parameters: time post-induction: 4.5 h; library: site-saturation at positions 5, 18, 19, 20
Assign Satisfied whenever shrunken log2 fold change does not fall below 0.005; assign Not satisfied whenever it does.

INSERT INTO assay_data (sequence_code, assigned_label) VALUES
  ('RRIRNRPPRLPRPRPRPIMIPRP', 'Not satisfied');

Q: Hi team, for RRIRARPPRLPRPRPRPPHAPRP , is the recorded shrunken log2 fold change at or above 0.005?
Ans: Satisfied

Q: Say whether RRIRGRPPRLPRPRPRPWDRPRP shows shrunken log2 fold change of 0.005 or more.
Ans: Not satisfied

Q: Answer whether shrunken log2 fold change of RRIRTRPPRLPRPRPRPFWSPRP is greater than or equal to 0.005.
Ans: Not satisfied

Q: Does the sequence RRIRYRPPRLPRPRPRPSKQPRP have recorded shrunken log2 fold change that is 0.005 or more?
Ans: Not satisfied

Q: Has RRIRYRPPRLPRPRPRPGFTPRP a recorded shrunken log2 fold change greater than or equal to 0.005?
Ans: Not satisfied

----------
- Tested on: Escherichia coli TOP10
- Experimental details: shrunken log2 fold change of peptide-encoding DNA abundance (4.5 h post-induction vs induction); higher = less antimicrobial activity (less host growth inhibition)
- Condition parameters: time post-induction: 4.5 h; library: site-saturation at positions 5, 18, 19, 20
Would you mind telling me the reported shrunken log2 fold change of each entry?
Give bare numbers.

Past entries and their recorded results:
INSERT INTO results (sequence_code, study_target, test_value) VALUES
  ('RRIRSRPPRLPRPRPRPEMDPRP', 'Escherichia coli TOP10', -0.0847),
  ('RRIRGRPPRLPRPRPRPNWRPRP', 'Escherichia coli TOP10', 0.595),
  ('RRIRQRPPRLPRPRPRPCHYPRP', 'Escherichia coli TOP10', -0.000921),
  ('RRIRTRPPRLPRPRPRPLRPPRP', 'Escherichia coli TOP10', 0.864),
  ('RRIRWRPPRLPRPRPRPHAHPRP', 'Escherichia coli TOP10', 0.0336),
  ('RRIRKRPPRLPRPRPRPWKPPRP', 'Escherichia coli TOP10', -0.243),
  ('RRIRCRPPRLPRPRPRPDSWPRP', 'Escherichia coli TOP10', -0.115),
  ('RRIRTRPPRLPRPRPRPDERPRP', 'Escherichia coli TOP10', -0.146),
  ('RRIRIRPPRLPRPRPRPKPRPRP', 'Escherichia coli TOP10', 0.576),
  ('RRIRGRPPRLPRPRPRPFIDPRP', 'Escherichia coli TOP10', 0.585);

Go through the items and report each one's shrunken log2 fold change.
1. RRIRARPPRLPRPRPRPPYQPRP
2. RRIRQRPPRLPRPRPRPIWPPRP

Ans:
1: 0.171; 2: -0.0155

----------
Hi there, I'd appreciate the recorded shrunken log2 fold change for every entry that follows.
- Tested on: Escherichia coli TOP10
- Experimental details: shrunken log2 fold change of peptide-encoding DNA abundance (4.5 h post-induction vs induction); higher = less antimicrobial activity (less host growth inhibition)
- Condition parameters: time post-induction: 4.5 h; library: site-saturation at positions 5, 18, 19, 20
Numbers only.

Worked examples, 3 sequences total:
INSERT INTO assay_data (sequence_code, test_value) VALUES
  ('RRIRHRPPRLPRPRPRPQYVPRP', -0.213),
  ('RRIRDRPPRLPRPRPRPHKLPRP', 0.00695),
  ('RRIRSRPPRLPRPRPRPVFRPRP', -0.113);

Here are 3 sequences. What values of shrunken log2 fold change were reported for them?
1. RRIRTRPPRLPRPRPRPWIGPRP
2. RRIRPRPPRLPRPRPRPGHLPRP
3. RRIRSRPPRLPRPRPRPDNAPRP

Ans:
1. -0.233
2. 0.234
3. -0.201

# batch: return shrunken log2 fold change for each of the 3 sequences below
1. RRIRTRPPRLPRPRPRPCVWPRP
2. RRIRLRPPRLPRPRPRPKDYPRP
3. RRIRTRPPRLPRPRPRPDVTPRP

Ans:
-0.000289
-0.0534
-0.06

Please state, for each entry, its recorded shrunken log2 fold change.
1. RRIRVRPPRLPRPRPRPQQTPRP
2. RRIRFRPPRLPRPRPRPSCEPRP
3. RRIRCRPPRLPRPRPRPGFKPRP
4. RRIRQRPPRLPRPRPRPKRRPRP

Ans:
[0.0227, -0.619, -0.226, 0.0204]

Q: shrunken log2 fold change lookup needed for RRIRSRPPRLPRPRPRPCNDPRP , thanks.
Ans: -0.261

----------
- Tested on: Escherichia coli TOP10
- Experimental details: shrunken log2 fold change of peptide-encoding DNA abundance (4.5 h post-induction vs induction); higher = less antimicrobial activity (less host growth inhibition)
- Condition parameters: time post-induction: 4.5 h; library: site-saturation at positions 5, 18, 19, 20
Assign shrunken log2 fold change to each entry below.
Answers are plain numbers.

Please review the entries below; each comes with its answer.
INSERT INTO measurements (sequence_code, observed_property, test_value) VALUES
  ('RRIRLRPPRLPRPRPRPLATPRP', 'shrunken log2 fold change', 0.38),
  ('RRIRLRPPRLPRPRPRPKVHPRP', 'shrunken log2 fold change', -0.106),
  ('RRIRPRPPRLPRPRPRPHQFPRP', 'shrunken log2 fold change', -0.0896);

Q: Fill blank: measured shrunken log2 fold change of the sequence RRIRMRPPRLPRPRPRPDYAPRP is ____.
Ans: 0.263

----------
- Tested on: Escherichia coli TOP10
- Experimental details: shrunken log2 fold change of peptide-encoding DNA abundance (4.5 h post-induction vs induction); higher = less antimicrobial activity (less host growth inhibition)
- Condition parameters: time post-induction: 4.5 h; library: site-saturation at positions 5, 18, 19, 20
Observed property: shrunken log2 fold change

Would you please look over these solved cases?
INSERT INTO results (sequence_code, test_value) VALUES
  ('RRIRKRPPRLPRPRPRPFGQPRP', 0.783),
  ('RRIRMRPPRLPRPRPRPDPCPRP', 0.0496);

Note: attention shifts to another entry.
Q: Entry RRIRRRPPRLPRPRPRPQYTPRP has what shrunken log2 fold change?
Ans: -0.221

----------
- Tested on: Escherichia coli TOP10
- Experimental details: shrunken log2 fold change of peptide-encoding DNA abundance (4.5 h post-induction vs induction); higher = less antimicrobial activity (less host growth inhibition)
- Condition parameters: time post-induction: 4.5 h; library: site-saturation at positions 5, 18, 19, 20
Observed property: shrunken log2 fold change
Numbers only.

INSERT INTO measurements (sequence_code, observed_property, test_value) VALUES
  ('RRIRARPPRLPRPRPRPWDPPRP', 'shrunken log2 fold change', 0.496);

For every record below, what is its shrunken log2 fold change?
1. RRIRFRPPRLPRPRPRPSKHPRP
2. RRIRSRPPRLPRPRPRPERSPRP
3. RRIRGRPPRLPRPRPRPGPNPRP
4. RRIRIRPPRLPRPRPRPMGHPRP

Ans:
0.0257
0.206
0.941
-0.174

----------
- Tested on: Escherichia coli TOP10
- Experimental details: shrunken log2 fold change of peptide-encoding DNA abundance (4.5 h post-induction vs induction); higher = less antimicrobial activity (less host growth inhibition)
- Condition parameters: time post-induction: 4.5 h; library: site-saturation at positions 5, 18, 19, 20
If the reported shrunken log2 fold change equals or exceeds -0.03, assign criterion met. If not, assign criterion not met.

INSERT INTO measurements (sequence_code, study_target, assigned_label) VALUES
  ('RRIRLRPPRLPRPRPRPDAAPRP', 'Escherichia coli TOP10', 'criterion met'),
  ('RRIRPRPPRLPRPRPRPRFWPRP', 'Escherichia coli TOP10', 'criterion met'),
  ('RRIRHRPPRLPRPRPRPHQFPRP', 'Escherichia coli TOP10', 'criterion met'),
  ('RRIRERPPRLPRPRPRPQPIPRP', 'Escherichia coli TOP10', 'criterion met'),
  ('RRIRYRPPRLPRPRPRPGVMPRP', 'Escherichia coli TOP10', 'criterion not met');

Q: Does RRIRCRPPRLPRPRPRPYGEPRP have a reported shrunken log2 fold change of at least -0.03?
Ans: criterion not met

Q: Is shrunken log2 fold change for RRIRARPPRLPRPRPRPNDWPRP at or above -0.03?
Ans: criterion met

----------
- System: Escherichia coli TOP10;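 also: peptides expressed intracellularly from a pBAD plasmid library in pooled LB shake-flask culture, induced with 0.3% L-arabinose, DNA abundance read by NGS, three biological replicates, DESeq2 with apeglm shrinkage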
- Experimental details: shrunken log2 fold change of peptide-encoding DNA abundance (4.5 h post-induction vs induction); higher = less antimicrobial activity (less host growth inhibition)
- Condition parameters: time post-induction: 4.5 h; library: site-saturation at positions 5, 18, 19, 20
Observed property: shrunken log2 fold change

Some entries whose results are on file:
INSERT INTO results (sequence_code, observed_property, test_value) VALUES
  ('RRIRFRPPRLPRPRPRPMRWPRP', 'shrunken log2 fold change', 0.264),
  ('RRIRTRPPRLPRPRPRPTWNPRP', 'shrunken log2 fold change', -0.0206),
  ('RRIRGRPPRLPRPRPRPISWPRP', 'shrunken log2 fold change', -0.0765);

Hey, quick one: what's shrunken log2 fold change for each of these?
1. RRIRFRPPRLPRPRPRPFAWPRP
2. RRIRIRPPRLPRPRPRPRMQPRP
3. RRIRARPPRLPRPRPRPPMDPRP
4. RRIRERPPRLPRPRPRPFGWPRP

Ans:
1. -0.0558
2. -0.199
3. 0.515
4. 0.213

Record shrunken log2 fold change for all entries; do not skip any.
1. RRIRLRPPRLPRPRPRPHWYPRP
2. RRIRCRPPRLPRPRPRPTMDPRP

Ans:
1. -0.128
2. -0.237

Quick request: shrunken log2 fold change for each listed item, please.
1. RRIRMRPPRLPRPRPRPAYWPRP
2. RRIRIRPPRLPRPRPRPNKWPRP

Ans:
[0.509, -0.0869]

Lab note: each sequence below needs its shrunken log2 fold change filled in.
1. RRIRSRPPRLPRPRPRPTGRPRP
2. RRIRGRPPRLPRPRPRPHNSPRP
3. RRIRYRPPRLPRPRPRPCYTPRP
4. RRIRDRPPRLPRPRPRPVSHPRP
5. RRIRLRPPRLPRPRPRPYHRPRP

Ans:
1: 0.15; 2: -0.0747; 3: -0.5; 4: 0.00713; 5: 0.0373
